- Assay Protocol: In vitro metabolic stability in human hepatocytes
- Format: in vitro ADME
- Condition Label: human hepatocytes 1×10^6 cells/mL, 37° C., up to 120 min; read-out: Intrinsic clearance (uL/min/10^6 cells)
Outcome Measure: hepatocyte CLint at 1 μM

Recorded hepatocyte CLint at 1 μM of COC(=O)N1CCOC(Cn2c(-c3c(F)cc(N4CCCC4=O)cc3F)nc3cc(C)ccc32)C1 (centres unmarked) [Compound 2] , please.
2.98 µL/min/1e6 cells

Recorded hepatocyte CLint at 1 μM of [2H]C([2H])([2H])c1ccc2c(c1)nc(-c1c(F)cc(N3CCCC3=O)cc1F)n2C[C@H]1CN(C(C)=O)CCO1 [Compound 14] , please.
< 1 µL/min/1e6 cells

Recorded hepatocyte CLint at 1 μM of CC(=O)N1CCOC(Cn2c(-c3c(F)cc(N4CCCC4=O)cc3F)nc3cc(C)ccc32)C1 (stereo in doubt) [Compound 1] , please.
< 1 µL/min/1e6 cells

Recorded hepatocyte CLint at 1 μM of COC(=O)N1CCO[C@@H](Cc2c(-c3c(F)cc(N4CCCC4=O)cc3F)nc3cc(C)ccn23)C1 [Compound 9] , please.
3.86 µL/min/1e6 cells

Recorded hepatocyte CLint at 1 μM of CC(=O)N1CCO[C@@H](Cn2c(-c3c(F)cc(N4CCCC4=O)cc3F)nc3cc(Cl)ccc32)C1 [Compound 10] , please.
< 1 µL/min/1e6 cells

Recorded hepatocyte CLint at 1 μM of CC(=O)N1CCO[C@@H](Cn2c(-c3ccc(N4CCCC4=O)cc3Cl)nc3cc(C)ccc32)C1 [Compound 3] , please.
4.08 µL/min/1e6 cells

Recorded hepatocyte CLint at 1 μM of CCC(=O)N1CCO[C@@H](Cn2c(-c3c(Cl)cc4c(c3F)OCC(=O)N4)nc3cc(C)ccc32)C1 [Compound 17] , please.
4.1 µL/min/1e6 cells

Recorded hepatocyte CLint at 1 μM of CC(=O)N1CCO[C@@H](Cn2c(-c3c(F)cc(N4CCCC4=O)cc3Cl)nc3cc(C)ccc32)C1 [Compound 4] , please.
< 1 µL/min/1e6 cells

---

- Study Target: CYP1A2 (Homo sapiens)
- Construct: 150-donor pooled human liver microsomes (purchased from Corning, Cat. No. 452117); tissue Corning 452117; host or cells: 150-donor pooled human liver microsomes
- Sequence (P05177 1-516): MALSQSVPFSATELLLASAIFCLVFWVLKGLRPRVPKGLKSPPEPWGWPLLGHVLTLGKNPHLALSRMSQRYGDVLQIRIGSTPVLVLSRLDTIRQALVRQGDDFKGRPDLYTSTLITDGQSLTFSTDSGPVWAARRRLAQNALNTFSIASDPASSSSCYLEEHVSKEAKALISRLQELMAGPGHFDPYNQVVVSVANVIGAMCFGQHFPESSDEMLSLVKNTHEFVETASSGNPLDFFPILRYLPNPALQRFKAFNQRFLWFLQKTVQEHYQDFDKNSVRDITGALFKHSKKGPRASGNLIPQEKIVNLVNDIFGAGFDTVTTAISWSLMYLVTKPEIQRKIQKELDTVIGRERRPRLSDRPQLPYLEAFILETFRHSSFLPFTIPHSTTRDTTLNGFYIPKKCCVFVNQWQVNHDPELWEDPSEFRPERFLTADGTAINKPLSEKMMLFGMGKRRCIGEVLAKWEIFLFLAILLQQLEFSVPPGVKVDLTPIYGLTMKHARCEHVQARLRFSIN
- Assay Protocol: CYP inhibition assay in pooled human liver microsomes (phenacetin)
- Assay type: in vitro ADME
- Condition Label: human liver microsomes 0.2 mg/mL, substrate phenacetin; read-out: CYP 1A2 (μM) IC50
Exercise: for every item that follows, state its recorded IC50.

Recall the recorded IC50 for CC(=O)N1CCO[C@@H](Cn2c(-c3c(F)cc(N4CCCC4=O)cc3Cl)nc3cc(C)ccc32)C1 with CYP1A2 (Homo sapiens) and state it.
> 30 µM

Recall the recorded IC50 for [2H]C([2H])([2H])c1ccc2c(c1)nc(-c1c(F)cc(N3CCCC3=O)cc1F)n2C[C@H]1CN(C(C)=O)CCO1 with CYP1A2 (Homo sapiens) and state it.
> 30 µM

Recall the recorded IC50 for CC(=O)N1CCOC(Cn2c(-c3c(F)cc(N4CCCC4=O)cc3F)nc3cc(C)ccc32)C1 (stereo in doubt) with CYP1A2 (Homo sapiens) and state it.
> 30 µM

Recall the recorded IC50 for COC(=O)N1CCO[C@@H](Cc2c(-c3c(F)cc(N4CCCC4=O)cc3F)nc3cc(C)ccn23)C1 with CYP1A2 (Homo sapiens) and state it.
> 30 µM

Recall the recorded IC50 for CC(=O)N1CCO[C@@H](Cn2c(-c3c(F)cc(N4CCCC4=O)cc3F)nc3cc(Cl)ccc32)C1 with CYP1A2 (Homo sapiens) and state it.
> 30 µM

Recall the recorded IC50 for CC(=O)N1CCO[C@@H](Cn2c(-c3ccc(N4CCCC4=O)cc3Cl)nc3cc(C)ccc32)C1 with CYP1A2 (Homo sapiens) and state it.
> 30 µM

Recall the recorded IC50 for COC(=O)N1CCOC(Cn2c(-c3c(F)cc(N4CCCC4=O)cc3F)nc3cc(C)ccc32)C1 (stereo not shown) with CYP1A2 (Homo sapiens) and state it.
> 30 µM

---

Exercise: for every item that follows, state its recorded log10 IC50.
- Study Target: UniProtKB P56373
- Sequence (P56373 whole entry): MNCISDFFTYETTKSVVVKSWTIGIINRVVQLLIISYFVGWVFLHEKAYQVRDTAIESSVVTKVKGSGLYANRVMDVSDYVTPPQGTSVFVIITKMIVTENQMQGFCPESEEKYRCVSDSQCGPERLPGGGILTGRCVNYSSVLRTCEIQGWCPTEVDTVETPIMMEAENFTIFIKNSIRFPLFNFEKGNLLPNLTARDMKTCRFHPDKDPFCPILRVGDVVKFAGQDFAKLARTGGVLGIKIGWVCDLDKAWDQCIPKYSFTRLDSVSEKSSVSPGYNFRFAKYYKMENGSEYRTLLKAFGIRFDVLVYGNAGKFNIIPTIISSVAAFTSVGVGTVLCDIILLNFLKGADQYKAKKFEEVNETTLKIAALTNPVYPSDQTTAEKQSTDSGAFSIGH
- Assay Protocol: FLIPR calcium flux assay, antagonistic activity against hP2X3 receptor
- Condition Label: 1321N1/hP2X3 cells, agonist α,β-meATP 500 nM
# values: log10(IC50), units nM

Recall the recorded log10 IC50 for Cc1ccc2c(c1)nc(-c1c(F)cc(N3CCCC3=O)cc1Cl)n2C[C@H]1CN(C(=O)CC(F)(F)F)CCO1 with UniProtKB P56373 and state it.
1.85

Recall the recorded log10 IC50 for CC(=O)N1CCO[C@@H](Cn2c(-c3c(F)cc(N4CCCC4=O)cc3F)nc3cc(Cl)cc(F)c32)C1 with UniProtKB P56373 and state it.
2.88

Recall the recorded log10 IC50 for CC(=O)N1CCO[C@@H](Cn2c(-c3c(F)cc(N4CCCC4=O)cc3F)nc3cc(C(F)F)ccc32)C1 with UniProtKB P56373 and state it.
2.00

Recall the recorded log10 IC50 for CC(=O)N1CCO[C@@H](Cn2c(-c3ccc(N4CCCC4=O)cc3Cl)nc3cc(C)ccc32)C1 with UniProtKB P56373 and state it.
1.61

Recall the recorded log10 IC50 for CNC(=O)c1cc(F)c(-c2nc3nc(C)ccc3n2C[C@H]2CN(C(=O)OC)CCO2)c(F)c1 with UniProtKB P56373 and state it.
3.77

Recall the recorded log10 IC50 for CC(=O)N1CCO[C@@H](Cn2c(-c3c(F)cc(N4CCCC4=O)cc3Cl)nc3cc(Cl)c(F)cc32)C1 with UniProtKB P56373 and state it.
1.94

---

- Assay Protocol: In vivo pharmacokinetic experiment in rats, intragastric administration
- Condition Label: male, rat, po, SD rats, 5 mg/kg, plasma
- Experimental: The drug concentrations in the plasma of the test animals (rats) at different time points after intragastric administration of the compound of the present disclosure were determined by an LC/MS/MS method. The pharmacokinetic behavior in rats of the compound of the present disclosure was studied and its pharmacokinetic profile was evaluated. Male, healthy SD rats of SPF grade, 6-8 weeks old, 3 rats in each group. […]
Outcome Measure: AUC(0-t) (ng·h/mL)
Quick note: give the figure in ng·h/mL, leave out the unit.

Recorded AUC(0-t) of CNC(=O)c1cc(F)c(-c2nc3cc(C)ccn3c2C[C@H]2CN(C(=O)OC)CCO2)c(F)c1 [BLU-5937, reference compound] , please.
361

Recorded AUC(0-t) of CC(=O)N1CCO[C@@H](Cn2c(-c3c(F)cc(N4CCCC4=O)cc3Cl)nc3cc(C)ccc32)C1 [Compound 4] , please.
408

---

Exercise: for every item that follows, state its recorded IC50.
- Study Target: CYP2C9 (Homo sapiens)
- Construct: 150-donor pooled human liver microsomes (purchased from Corning, Cat. No. 452117); tissue Corning 452117; host or cells: 150-donor pooled human liver microsomes
- Sequence (P11712 whole entry): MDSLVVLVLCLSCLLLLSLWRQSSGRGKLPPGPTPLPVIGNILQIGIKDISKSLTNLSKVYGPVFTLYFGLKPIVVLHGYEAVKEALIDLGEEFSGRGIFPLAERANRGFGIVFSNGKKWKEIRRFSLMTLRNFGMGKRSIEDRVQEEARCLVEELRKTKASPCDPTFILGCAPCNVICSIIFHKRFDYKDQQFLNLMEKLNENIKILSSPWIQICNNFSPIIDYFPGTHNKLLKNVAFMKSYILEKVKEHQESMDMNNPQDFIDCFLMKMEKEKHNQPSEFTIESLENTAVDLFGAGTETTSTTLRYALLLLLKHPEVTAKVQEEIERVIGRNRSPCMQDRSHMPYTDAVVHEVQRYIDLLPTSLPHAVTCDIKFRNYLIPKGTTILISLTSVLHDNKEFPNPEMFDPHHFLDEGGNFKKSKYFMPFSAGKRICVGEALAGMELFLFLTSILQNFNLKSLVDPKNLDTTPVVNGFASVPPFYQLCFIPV
- Assay Protocol: CYP inhibition assay in pooled human liver microsomes (diclofenac sodium)
- Assay type: in vitro ADME
- Condition Label: human liver microsomes 0.2 mg/mL, substrate diclofenac sodium; read-out: CYP 2C9 (μM) IC50

Recorded IC50 of CC(=O)N1CCO[C@@H](Cn2c(-c3c(F)cc(N4CCCC4=O)cc3F)nc3cc(Cl)ccc32)C1 , please.
> 30 µM

Recorded IC50 of CC(=O)N1CCO[C@@H](Cn2c(-c3c(F)cc(N4CCCC4=O)cc3Cl)nc3cc(C)ccc32)C1 , please.
> 30 µM

Recorded IC50 of CC(=O)N1CCO[C@@H](Cn2c(-c3ccc(N4CCCC4=O)cc3Cl)nc3cc(C)ccc32)C1 , please.
> 30 µM
